- Substrate: Cc1cc(=O)oc2cc(O[C@@H]3OC[C@@H](O)[C@H](O)[C@H]3O)ccc12
- procedure summary: galactosyltransferase assay, HPLC-UV
- Type: biochemical, Homo sapiens
- condition parameters: apparent, fixed 1 mM UDP-Gal, 10 mM MnCl2, 100 mM sodium cacodylate pH 7.0, 37 °C
- Excerpt: galactosyltransferase assay, HPLC-UV on hβ4GalT7 (GST-β4GalT7)
Parameter kcat/Km: see the listing below.
Report the figure in M⁻¹ s⁻¹ without appending any unit label.

The following proteins have reported results that may help.
1. hβ4GalT7 (GST-β4GalT7) (Homo sapiens; Y196F) (protein, truncated soluble form lacking the first 60 N-terminal amino acids (transmembrane domain and part of stem), GST fusion (tag kept), pET-41a(+), E. coli BL21(DE3), glutathione-Sepharose purified) VRGQGQETSGPPRACPPEPPPEHWEEDASWGPHRLAVLVPFRERFEELLVFVPHMRRFLSRKKIRHHIYVLNQVDHFRFNRAALINVGFLESSNSTDYIAMHDVDLLPLNEELDYGFPEAGPFHVASPELHPLYHFKTYVGGILLLSKQHYRLCNGMSNRFWGWGREDDEFYRRIKGAGLQLFRPSGITTGYKTFRHLHDPAWRKRDQKRIAAQKQEQFKVDREGGLNTVKYHVASRTALSVGGAPCTVLNIMLDCDKTATPWCTFS ... 467
2. hβ4GalT7 (GST-β4GalT7) (Homo sapiens; R226K) (protein, truncated soluble form lacking the first 60 N-terminal amino acids (transmembrane domain and part of stem), GST fusion (tag kept), pET-41a(+), E. coli BL21(DE3), glutathione-Sepharose purified) VRGQGQETSGPPRACPPEPPPEHWEEDASWGPHRLAVLVPFRERFEELLVFVPHMRRFLSRKKIRHHIYVLNQVDHFRFNRAALINVGFLESSNSTDYIAMHDVDLLPLNEELDYGFPEAGPFHVASPELHPLYHYKTYVGGILLLSKQHYRLCNGMSNRFWGWGKEDDEFYRRIKGAGLQLFRPSGITTGYKTFRHLHDPAWRKRDQKRIAAQKQEQFKVDREGGLNTVKYHVASRTALSVGGAPCTVLNIMLDCDKTATPWCTFS ... 2920
3. hβ4GalT7 (GST-β4GalT7) (Homo sapiens; Y199F) (protein, truncated soluble form lacking the first 60 N-terminal amino acids (transmembrane domain and part of stem), GST fusion (tag kept), pET-41a(+), E. coli BL21(DE3), glutathione-Sepharose purified) VRGQGQETSGPPRACPPEPPPEHWEEDASWGPHRLAVLVPFRERFEELLVFVPHMRRFLSRKKIRHHIYVLNQVDHFRFNRAALINVGFLESSNSTDYIAMHDVDLLPLNEELDYGFPEAGPFHVASPELHPLYHYKTFVGGILLLSKQHYRLCNGMSNRFWGWGREDDEFYRRIKGAGLQLFRPSGITTGYKTFRHLHDPAWRKRDQKRIAAQKQEQFKVDREGGLNTVKYHVASRTALSVGGAPCTVLNIMLDCDKTATPWCTFS ... 1880

// moving on: another record for kcat/Km
For this protein ( hβ4GalT7 (GST-β4GalT7) (Homo sapiens; R270K) (protein, truncated soluble form lacking the first 60 N-terminal amino acids (transmembrane domain and part of stem), GST fusion (tag kept), pET-41a(+), E. coli BL21(DE3), glutathione-Sepharose purified) VRGQGQETSGPPRACPPEPPPEHWEEDASWGPHRLAVLVPFRERFEELLVFVPHMRRFLSRKKIRHHIYVLNQVDHFRFNRAALINVGFLESSNSTDYIAMHDVDLLPLNEELDYGFPEAGPFHVASPELHPLYHYKTYVGGILLLSKQHYRLCNGMSNRFWGWGREDDEFYRRIKGAGLQLFRPSGITTGYKTFRHLHDPAWRKRDQKKIAAQKQEQFKVDREGGLNTVKYHVASRTALSVGGAPCTVLNIMLDCDKTATPWCTFS ), measured kcat/Km is 1420
